- Tested on: ALFA‐tag binder 4A
Ends that are not written are not given here. * marks the point of attachment. FITC = O=C1OC2(c3ccc(O)cc3Oc3cc(O)ccc32)c2ccc(NC(=S)*)cc21
Measurement type: Kd (µM)

[[record]]
binder = "{FITC}-SRLEEELRRRLTE [N‐terminally FITC‐labeled ALFA‐tag]"
measurement_type = "Kd"
value_reported = 222

